test system: CAKI-1 renal; assay: NCI tumour cell line growth inhibition, 48 h; in the data active = GI50 below about 0.43 µM; inactive = the rest
Labels: 1 (yes) for active, 0 (no) for inactive

• c1ccc(COc2ccc(Nc3ncnc4ccc(-c5ccco5)cc34)cc2)cc1 = 0 (no)
• COc1cccc(C2C3=C(COC3=O)N(CCO)c3cc4c(cc32)CCC4)c1 (stereo unspecified) = 1 (yes)
• Cn1cc(-c2csc(-c3cn(C)c4ncccc34)n2)c2ccccc21 = 1 (yes)
• CC1OC(OC2C(OC3CCC4(C)C(CCC5(C)C4CC=C4C6CC(C)(C)CCC6(CO)C(O)CC45C)C3(C)C)OC(C(=O)O)C(OC3OC(COC4OC(CO)C(O)C(O)C4O)C(O)C(O)C3O)C2O)C(O)C(O)C1O (stereo unspecified) = 0 (no)
• Cc1nc(N=C(N)N)nc2ccc3ccccc3c12 = 0 (no)
• C[C@@H](Oc1cc(-n2cnc3ccc(OCC4CCN(C)CC4)cc32)sc1C(N)=O)c1ccccc1C(F)(F)F = 0 (no)
• c1ccc(CNc2nc(Nc3ccc(-c4nc5ccccc5[nH]4)cc3)c3cn[nH]c3n2)cc1 = 0 (no)
• COc1cc2c(c(Br)c1N)-c1cc(Br)c(N)cc1C2=O = 0 (no)
• NCCCNCCCNc1nc2ccccc2c2[nH]c3ccccc3c12 = 0 (no)
• CN(C)c1ccc(N=C(C#N)c2nc(N)nc(N3CCOCC3)n2)cc1 = 0 (no)
• Cn1cccc1C1CC(=O)N(CCC[Se]C#N)C1=O (stereo unspecified) = 0 (no)

###

# TGI per record follows
system: 786-0 renal; test: NCI tumour cell line growth inhibition, 48 h
Readout Name: TGI

* O=C(O)Cc1ccccc1 | > 2000 µM
* Cc1nc(N=C(N)N)nc2ccc3ccccc3c12 | 3.01 µM
* COc1ccc(OC)c(CC(=O)c2ccc(O)c(C(=O)NCCc3ccc(F)cc3)c2)c1 | 24.5 µM
* COC(=O)[C@H]1[C@H](OC(=O)[C@@H](OC)c2ccccc2)ON2CC[C@@H](OC(=O)c3ccccc3)[C@H]12 | > 100 µM
* CNS(=O)(=O)NN(C)S(=O)(=O)c1ccc(C)cc1 | > 100 µM
* COc1ccc(Nc2nc3c(N)cc(C(F)(F)F)cc3nc2-c2ccccc2)cc1 | > 100 µM
* Nc1cc2c3c(cccc3c1)C(=O)N(CCN1CCN(CCN3C(=O)c4cccc5cc(N)cc(c45)C3=O)CC1)C2=O | > 100 µM
* CCOC(=O)/C(=C/c1c(-c2ccccc2)[nH]c2ccccc12)C(=O)c1ccc(Cl)cc1 | > 100 µM
* COc1cc2c(c(Br)c1N)-c1cc(Br)c(N)cc1C2=O | > 100 µM
* C#CCSc1nnnn1-c1ccc(Br)c(C)c1 | > 100 µM

###

tested on: EKVX NSCLC; experiment: NCI tumour cell line growth inhibition, 48 h; in the data active = GI50 below about 0.43 µM; inactive = the rest
Labels: active, inactive

• C=C1CCC2C3(C)COC(c4cccc(Cl)c4)OC3CCC2(C)C1/C=C/C1=CCOC1=O (stereo unspecified) = inactive
• NCCCNCCCNc1nc2ccccc2c2[nH]c3ccccc3c12 = inactive
• Oc1ccc(-c2nc(-c3ccc(F)cc3)c(-c3ccncc3)[nH]2)cc1 = inactive
• CCCCCCCCCCCCCCCc1ccc(C(=O)C[n+]2ccccc2)cc1 = inactive
• C/C(=N\NC(=S)Nc1ccccc1)c1ccccn1 = active
• C[C@@H](Oc1cc(-n2cnc3ccc(OCC4CCN(C)CC4)cc32)sc1C(N)=O)c1ccccc1C(F)(F)F = inactive

###

tested on: EKVX NSCLC; test: NCI tumour cell line growth inhibition, 48 h
Readout Name: GI50

- C/C=C(\C)C(=O)O[C@@H]1C=CC(=O)O[C@H]1COC(=O)[C@H](C)O: 19 µM
- CC[n+]1c(/C=C/c2ccc(N(CCCl)CCCl)cc2)ccc2cc(Br)ccc21: 1060 µM
- Cn1cc(-c2nonc2-c2cn(C)c3ccc(Br)cc23)c2ccccc21: 3.82 µM
- Cn1cc(-c2csc(-c3cn(C)c4ncccc34)n2)c2ccccc21: 0.906 µM
- O=[N+]([O-])c1ccc([I+]c2ccccc2)cc1: 1.5 µM
- CC/C(=C(/CC)c1ccc(OP(=O)([O-])[O-])cc1)c1ccc(OP(=O)([O-])[O-])cc1.N.N.N.N.[Pt+4].[Pt+4]: 7.77 µM

###

tested on: OVCAR-8 ovarian; experiment: NCI tumour cell line growth inhibition, 48 h
Readout Name: TGI

- NC(=S)NS(=O)(=O)c1ccc(F)cc1: > 100 µM
- CCN=C(N)CSS(=O)(=O)O: > 100 µM
- CCOC(=O)/C(=C/c1c(-c2ccccc2)[nH]c2ccccc12)C(=O)c1ccc(Cl)cc1: > 100 µM

###

# TGI per record follows
system: SW-620 colon; test: NCI tumour cell line growth inhibition, 48 h
Readout Name: TGI

- CC(=O)N(CCc1ccccc1)C(C)(C#N)c1ccccc1 (configuration not stated): > 100 µM
- c1ccc(CNc2nc(Nc3ccc(-c4nc5ccccc5[nH]4)cc3)c3cn[nH]c3n2)cc1: 6.62 µM
- O=C1Nc2ccccc2/C1=C\c1c(Cl)[nH]c2ccccc12: 5.45 µM
- CC1C2CC(CC2=O)C1(C)C (configuration not stated): > 100 µM
- O=C1NCC2=C1CCC1c3ccccc3CCN21 (configuration not stated): > 100 µM
- O=[N+]([O-])c1ccc(N=Nc2c(O)[nH]c3ccc(Br)cc23)c([N+](=O)[O-])c1: 11.7 µM
- CN(N=O)C(N)=NC(=O)c1ccccc1: > 100 µM
- Cc1c(/C=N\NC(=S)N(C)CCN(C)C(=S)N/N=C\c2c(C)n(C)n(-c3ccccc3)c2=O)c(=O)n(-c2ccccc2)n1C: > 100 µM
- COC(=O)C1CCCCCCCCCCC12SCCCS2 (configuration not stated): 81.9 µM
- c1ccc(NC2(c3nnnn3C3CCCCC3)CCNCC2)cc1: 43.4 µM
- COc1ccc(C(c2ccccc2)N2C(=O)CCC2C(=O)O)cc1OC (configuration not stated): > 100 µM
- CCCCCNC(=O)C1C(=O)N(CCCCC)C(=O)/C1=N\N (configuration not stated): > 100 µM
- C[CH2][Sn]([CH2]C)([O]C(=O)c1cc(OC)c(OC)c(OC)c1)[O][Sn]([CH2]C)([CH2]C)[O]C(=O)c1cc(OC)c(OC)c(OC)c1: 34.9 µM
- O=C1c2cc([N+](=O)[O-])cnc2S(=O)(=O)N1c1ccc(Oc2ccccc2)cc1: > 100 µM
- CCCCCCCCCCCCCCCc1ccc(C(=O)C[n+]2ccccc2)cc1: 1.54 µM
- N#CCCN(CCC#N)c1ccc(/C=C2\N=C(c3ccccc3)N(NC(=O)c3ccncc3)C2=O)cc1: > 100 µM
- Cc1ccc(S(=O)(=O)OC(C=O)C(O)C(O)COC(c2ccccc2)(c2ccccc2)c2ccccc2)cc1 (configuration not stated): 35.2 µM
- [N-]=[N+]=NC1=C(N=[N+]=[N-])c2cccc3cccc(c23)C1=O: > 100 µM
- CSc1nc2ccccc2c(=O)n1-c1cccc(C)c1: > 100 µM
- COc1cccc(/C=N/[N-]C(N)=O)c1[O-].[OH3+].[Zn+2]: > 100 µM
- Nc1nc(Cl)cc(NCC2(CO)CC(O)C2)n1 (configuration not stated): > 100 µM
- CCCN=C1S/C(=C/c2ccc(OC)c(OC)c2)C(=O)N1c1ccccc1: > 100 µM

###

# TGI per record follows
system: SK-MEL-28 melanoma; experiment: NCI tumour cell line growth inhibition, 48 h
Readout Name: TGI

- O=Cc1cc(O)ccc1Br: > 100 µM
- O=C(CCl)Nc1ccc(-c2nc3ccccc3s2)cc1: 9.66 µM
- Clc1ccc(C2=NN(c3ccccc3)C3c4cc(Br)ccc4OCC23)cc1 (stereo unspecified): > 100 µM
- Cn1cc(-c2nonc2-c2cn(C)c3ccc(Br)cc23)c2ccccc21: > 100 µM
- CC/C(=C(/CC)c1ccc(OP(=O)([O-])[O-])cc1)c1ccc(OP(=O)([O-])[O-])cc1.N.N.N.N.[Pt+4].[Pt+4]: 6.28 µM
- Nc1cccc2cc(S(=O)(=O)Nc3ccc(C(=O)O)cc3)ccc12: > 100 µM
- c1ccc(CNc2nc(Nc3ccc(-c4nc5ccccc5[nH]4)cc3)c3cn[nH]c3n2)cc1: 6.68 µM
- O=c1[nH]nc(Cc2ccc(Cl)cc2)n1Nc1ccccc1: > 100 µM
- COc1ccc(/C=N/Nc2nc3ccccc3c(=O)n2-c2ccccc2)cc1: > 100 µM
- Cn1c(=O)c2c(nc3n2C(CCl)CO3)n(C)c1=O (stereo unspecified): > 100 µM
- Cc1cc(N(CCC#N)CCC#N)ccc1N=Nc1ccc([N+](=O)[O-])cc1: > 100 µM

###

test system: UACC-62 melanoma; experiment: NCI tumour cell line growth inhibition, 48 h
Readout Name: GI50

• COc1ccc(OC)c(CC(=O)c2ccc(O)c(C(=O)NCCc3ccc(F)cc3)c2)c1 = 4.01 µM
• Cn1cc(-c2ccc3c(c2)ncn3-c2ccc(CC(=O)Nc3cc(C(C)(C)C)on3)cc2)cn1 = 1.53 µM
• CCN1C(=O)N(CC)C2C1NN=c1s/c(=C\c3ccc([N+](=O)[O-])cc3)c(=O)n12 (centres undefined) = 0.5 µM
• COc1cc2nc(-c3ccc(Cl)cc3)cc(OCCCN3CCC(O)CC3)c2cc1OC = 1.9 µM
• CN(C)c1ccc(N=C(C#N)c2nc(N)nc(N3CCOCC3)n2)cc1 = 46.3 µM
• O=C(O)Cc1ccccc1 = > 1000 µM
• C[CH2][Sn]([CH2]C)([O]C(=O)c1cc(OC)c(OC)c(OC)c1)[O][Sn]([CH2]C)([CH2]C)[O]C(=O)c1cc(OC)c(OC)c(OC)c1 = 19.3 µM
• Cn1cccc1C1CC(=O)N(CCC[Se]C#N)C1=O (centres undefined) = 1.87 µM
• COc1ccc(C2=NN(c3ccc(S(N)(=O)=O)cc3)C(c3ccc(Cl)cc3)C2)c(O)c1 (centres undefined) = 5.89 µM
